- procedure-text: Cytotoxicity against human MAGI-CCR5 cells assessed as cell viability by MTS assay
- Format: cell-based
- condition-notes: magi-ccr5
measured-quantity: CC50 (µM)
Answers are plain numbers, in µM.

Solved entries (count: 3):
[
  {
    "compound-structure-string": "O=C(O)c1cccc(Cn2ccc3ccc(-c4ccc5cc(Cl)ccc5n4)cc32)c1",
    "measured-quantity": "CC50",
    "endpoint-result": 47
  },
  {
    "compound-structure-string": "O=C(O)c1cccc(Cn2ccc3ccc(-c4ccc5ccn(Cc6ccc(F)cc6)c5c4)cc32)c1",
    "measured-quantity": "CC50",
    "endpoint-result": 17
  },
  {
    "compound-structure-string": "COc1ccc(Cn2ccc3ccc(-c4ccc5ccn(Cc6cccc(C(=O)O)c6)c5c4)cc32)cc1",
    "measured-quantity": "CC50",
    "endpoint-result": 19
  }
]

Consider the molecule shown here: COc1ccc(Cn2ccc3ccc(Cc4cccc(C(=O)O)c4)cc32)cc1 What is its recorded CC50?
100

These entries and their values trace back to ChEMBL document CHEMBL2150883.
